- Assay system: hCRTH2 (Homo sapiens, UniProt Q9Y5Y4)
- Construct: expressed in transfected cells; host or cells: HEK (human embryonic kidney) cells expressing hCRTH2; membrane preparation
- Method: Radioligand binding assay ([3H]PGD2 competition, HEK-hCRTH2 membranes)
- Condition label: [3H]PGD2 competition, Table B
Observable: Ki

Record excerpt, results attached:
Compound: O=C(O)CCCCc1nc2cc(C(=O)N[C@@H]3CCOc4ccc(F)cc43)ccc2nc1-c1ccc(F)cc1
Value measured: 2.1 to 20 nM
--
Compound: C[C@@H]1CN(c2ccccc2)CCN1C(=O)c1ccc2nc(-c3ccc(Cl)cc3)c(CCCCC(=O)O)nc2c1
Value measured: 2.1 to 20 nM
--
Compound: O=C(O)CCCCc1nc2cc(C(=O)N3CCn4c(nnc4C(F)(F)F)C3)ccc2nc1-c1ccc(Cl)cc1
Value measured: 20.1 to 200 nM
--
Compound: O=C(O)CCCCc1nc2cc(C(=O)N3CCN(c4ccc(Cl)c(Cl)c4)CC3)ccc2nc1-c1ccc(Cl)cc1
Value measured: 0.1 to 2 nM
--
Compound: O=C(O)CCCCc1nc2cc(C(=O)N3CCN(c4ccccc4)C(=O)C3)ccc2nc1-c1ccccc1
Value measured: 20.1 to 200 nM

The compound listed as C[C@@H](CCc1nc2cc(C(=O)N3CC[C@@H](c4ccccc4)C3)ccc2nc1-c1ccccc1)CC(=O)O has a reported Ki of 2.1 to 20 nM

The compound listed as O=C(O)CCCc1nc2cc(C(=O)N[C@@H]3CCCc4cc(F)ccc43)ccc2nc1-c1ccccc1 has a reported Ki of 20.1 to 200 nM

The compound listed as CN1C(=O)CC(NC(=O)c2ccc3nc(-c4ccc(Cl)cc4)c(CCCCC(=O)O)nc3c2)c2ccccc21 (stereo not drawn) has a reported Ki of 2.1 to 20 nM

The compound listed as O=C(O)CCCCc1nc2cc(C(=O)N[C@H]3CC(=O)Nc4ccccc43)ccc2nc1-c1ccccc1 has a reported Ki of 20.1 to 200 nM

The compound listed as Cc1nnc(CNC(=O)c2ccc3nc(-c4ccc(F)cc4)c(CCCCC(=O)O)nc3c2)o1 has a reported Ki of 20.1 to 200 nM

The compound listed as Cc1ccc([C@@]23C[C@@H]2CN(C(=O)c2ccc4nc(-c5ccc(Cl)cc5)c(CCCCC(=O)O)nc4c2)C3)cc1 has a reported Ki of 2.1 to 20 nM

The compound listed as C[C@H](CCc1nc2cc(C(=O)N[C@H](C)c3ccc(F)cc3)ccc2nc1-c1ccc(F)cc1)CC(=O)O has a reported Ki of 20.1 to 200 nM

The compound listed as O=C(O)CCCCc1nc2cc(C(=O)N[C@H]3CCc4cc(Cl)ccc43)ccc2nc1-c1ccc(Cl)cc1 has a reported Ki of 0.1 to 2 nM

The compound listed as C[C@H]1CN(c2ccccc2)CCN1C(=O)c1ccc2nc(-c3ccccc3)c(CCCCC(=O)O)nc2c1 has a reported Ki of 2.1 to 20 nM

The compound listed as O=C(O)CCCCc1nc2cc(C(=O)N[C@H]3COc4ccccc43)ccc2nc1-c1ccc(Cl)cc1 [compound 562] has a reported Ki of 0.1 to 2 nM

###

- Assay system: hCRTH2 (Homo sapiens, UniProt Q9Y5Y4)
- Construct: expressed in transfected cells; host or cells: HEK (human embryonic kidney) cells expressing hCRTH2; membrane preparation
- Sequence (Q9Y5Y4 1-395): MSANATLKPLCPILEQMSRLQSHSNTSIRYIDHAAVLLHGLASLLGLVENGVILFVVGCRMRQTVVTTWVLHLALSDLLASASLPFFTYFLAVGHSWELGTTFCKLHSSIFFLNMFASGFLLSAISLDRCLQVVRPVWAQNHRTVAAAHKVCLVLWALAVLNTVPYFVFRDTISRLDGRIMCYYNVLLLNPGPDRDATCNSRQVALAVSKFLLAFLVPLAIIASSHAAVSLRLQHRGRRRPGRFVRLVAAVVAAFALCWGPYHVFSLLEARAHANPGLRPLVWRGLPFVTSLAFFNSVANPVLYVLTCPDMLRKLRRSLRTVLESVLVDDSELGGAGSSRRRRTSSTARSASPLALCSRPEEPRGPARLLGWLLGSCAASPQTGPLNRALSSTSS
- Method: Radioligand binding assay ([3H]PGD2 competition, HEK-hCRTH2 membranes)
- Condition label: [3H]PGD2 binding, rated A-E (Table A)
pKi: −log10 of the molar value.
Observable: pKi

Record excerpt, results attached:
Compound: O=C(O)CCCCc1nc2cc(C(=O)NC3(c4ccccc4)CC3)cnc2nc1-c1ccccc1 [14E]
pKi: 6.70 to 7.70

Compound: O=C(O)CCCCc1nc2cc(C(=O)N3CCCCC3c3ccccc3)ccc2nc1-c1ccccc1 (stereo not shown) [15AJ]
pKi: 7.70 to 8.68

Compound: O=C(O)Cc1cccc(CCc2nc3cc(C(=O)NCc4cccc(Cl)c4)ccc3nc2-c2ccc(Cl)cc2)c1 [19i]
pKi: 7.70 to 8.68

Compound: O=C(O)CCCCc1nc2cc(C(=O)N3CCC(c4ccccc4)CC3)ccc2nc1-c1cncnc1 [26Q]
pKi: 6.70 to 7.70

Compound: CC(CCCc1nc2cc(C(=O)NCc3cccc(F)c3)ccc2nc1-c1ccc(Cl)cc1)C(=O)O (stereo not shown) [compound 160]
pKi: 7.70 to 8.68

The compound listed as CCN1CCN(C(=O)c2ccc3nc(-c4ccccc4)c(CCCCC(=O)O)nc3c2)CC1 [15L] has a reported pKi of 6.70 to 7.70

The compound listed as CO/N=C(/c1ccccn1)C1CCN(C(=O)c2ccc3nc(-c4ccccc4)c(CCCCC(=O)O)nc3c2)CC1 [compound 114] has a reported pKi of 7.70 to 8.68

The compound listed as O=C(O)CCCCc1nc2cc(C(=O)N[C@H](c3ccc(Cl)cc3)C(F)(F)F)ccc2nc1-c1ccc(F)cc1 [compound 228] has a reported pKi of 8.70 to 10.00

The compound listed as C[C@@H](NC(=O)c1ccc2nc(-c3ccccc3)c(CCCC(F)(F)C(=O)O)nc2c1)c1ccc(F)cc1 [compound 37] has a reported pKi of 6.70 to 7.70

The compound listed as O=C(O)CCCCc1nc2cc(C(=O)N3CCC(c4ccccc4)C3)ccc2nc1-c1cccc(Cl)c1 (stereo not shown) [26F] has a reported pKi of 7.70 to 8.68

The compound listed as O=C(O)CCCCc1nc2cc(C(=O)Nc3cccc(F)c3)ccc2nc1-c1ccc(F)cc1 [5N] has a reported pKi of 6.70 to 7.70

The compound listed as O=C(O)CCCCc1nc2cc(C(=O)NCc3ccc(OC(F)(F)F)cc3)ccc2nc1-c1ccc(C(F)(F)F)cc1 [compound 156] has a reported pKi of 7.70 to 8.68
